Tested on: SK-MEL-2 melanoma
testMethodNotes: NCI tumour cell line growth inhibition, 48 h
As shown below, each of these molecules has a reported TGI value.
Use µM as the unit, but write only the number.

Below, each entry is followed by its recorded TGI result.
- CC1=C(C(=O)Nc2ccc(Cl)c(Cl)c2)C(c2cccc(Oc3ccccc3)c2)NC(=S)N1 (configuration not stated): 18.9
- CCCNC1=C2CC(C)CC(OC)[C@@H](O)[C@H](C)/C=C(\C)C(OC(N)=O)C(OC)/C=C\C=C(/C)C(=O)NC(=CC1=O)C2=O (some centres not stated): 31.4
- OCc1ccc(N2CCC2c2ccc(F)cc2)cc1Cl (configuration not stated): 29.3
- Cn1cc(C2=C(c3cn(C)c4ncccc34)C(=O)NC2=O)c2ccccc21: 12.8
- CCN(CC)CCC(=O)Nc1ccc2c(c1)C(=O)c1ccc(NC(=O)CCN(CC)CC)cc1C2=O: 19

Exam item: Fill in: TGI of `CC(C)c1ccc(/C=C2/C=C(c3ccc4ccccc4c3)OC2=O)cc1` is ___
Marked response: 39.6

Exam item: Fill in: TGI of `CCCCCN(CCCCC)CCCNc1c2c(nc3ccc(Cl)cc13)CCCC2` is ___
Marked response: 3.99

Exam item: Fill in: TGI of `CC(C)/C(Cl)=N\OC(=O)Nc1ccc(S(N)(=O)=O)cc1` is ___
Marked response: 34.1

Exam item: Fill in: TGI of `FC(F)(F)c1cc(Cl)cnc1N/N=C(/c1ccccc1)c1ccccn1` is ___
Marked response: 20.1

----------
System: MDA-N
testMethodNotes: NCI tumour cell line growth inhibition, 48 h
observable: TGI (µM)
Use µM as the unit, but write only the number.

- COc1cc(/C=C2\S/C(=N/Nc3nc(-c4ccc(Br)cc4)cs3)NC2=O)cc(OC)c1OC: 75.1

Now take the following molecule into account.
Exam item: Fill in: TGI of `Cc1cc(N(CCC#N)CCC#N)ccc1/C(N=Nc1ccc(Cl)cc1)=N\NC(=O)c1ccccc1` is ___
Marked response: 74.2

----------
Tested on: UO-31 renal
testMethodNotes: NCI tumour cell line growth inhibition, 48 h
As shown below, each of these compounds has a reported TGI value.

Below, each entry is followed by its recorded TGI result.
- Cc1cc(C)nc(NS(=O)(=O)c2ccc(NC(=O)c3ccc(Cl)c4c(Nc5ccc(S(=O)(=O)Nc6nc(C)cc(C)n6)cc5)c5ccccc5nc34)cc2)n1: 57.4 µM
- CC[C@@]1(C[C@H]2C[C@@]3(C(=O)OC)c4[nH]c5ccccc5c4CCN3C2=O)COC2(CCCCC2)O1: > 100 µM
- CC(=O)NNc1nc(C)c(C(=O)NNC(=O)C(=O)Nc2c(Cl)cc([N+](=O)[O-])cc2Cl)s1: 87.1 µM
- COc1ccc(C(=O)Cn2c(C(=O)c3ccccc3)nc(-c3ccc(OC)cc3)c2-c2ccc(OC)cc2)cc1: > 100 µM
- COC(=O)[C@H]1CO[C@@H](C(C)(C)C)N1C(=O)N1C=CC(=O)C[C@@H]1C: > 100 µM

Exam item: Fill in: TGI of COc1ccc(C2c3cc4c(cc3OC(NNS(=O)(=O)c3ccc(C)cc3)C2C)OCO4)cc1 (stereo unspecified) is ___
Marked response: > 100 µM

Exam item: Fill in: TGI of `CC1=C(C(=O)NCc2ccccc2)C(/C=C/c2ccccc2)C(C(=O)NCc2ccccc2)=C(C)N1` is ___
Marked response: > 100 µM

Exam item: Fill in: TGI of CO[C@H](C(=O)[C@@H](O)[C@@H](C)O)[C@@H]1Cc2cc3cc(O[C@H]4C[C@@H](O[C@H]5C[C@@H](O)[C@H](O)C(C)O5)[C@H](O)C(C)O4)c(C)c(O)c3c(O)c2C(=O)[C@H]1O[C@H]1C[C@@H](O[C@H]2C[C@@H](O[C@H]3C[C@](C)(O)C(=O)C(C)O3)[C@@H](O)C(C)O2)[C@H](O)C(C)O1 (stereo partly specified) is ___
Marked response: 1.6 µM

Exam item: Fill in: TGI of `N#CCCN(CCC#N)c1ccc(/C=C2\N=C(c3cc([N+](=O)[O-])ccc3Cl)OC2=O)cc1` is ___
Marked response: > 100 µM

Exam item: Fill in: TGI of `N#CN=C(N(Cc1ccccc1)Cc1ccccc1)N(Cc1ccccc1)Cc1ccccc1` is ___
Marked response: > 100 µM

----------
System: KM12 colon
testMethodNotes: NCI tumour cell line growth inhibition, 48 h
observable: TGI

Below, each entry is followed by its recorded TGI result.
- Cn1cc(C2=C(c3cn(C)c4ncccc34)C(=O)NC2=O)c2ccccc21: > 25 µM
- C[n+]1c2ccccc2c(/C=N\NS(=O)(=O)c2ccc(O)c(C(=O)O)c2)c2ccccc21: > 100 µM
- O=C(/C=C/C12c3ccccc3C(c3ccccc31)C1C(=O)NC(=O)C12)c1ccncc1 (stereo not given): 4.42 µM
- CC(C)CC(=O)OC[n+]1ccc(-c2c(COC(=O)NC(C)C)c(COC(=O)NC(C)C)c3n2CCC3)cc1: > 100 µM

Now take the following molecule into account.
Exam item: Fill in: TGI of OCc1ccc(N2CCC2c2ccc(F)cc2)cc1Cl (stereo not given) is ___
Marked response: > 66.4 µM

----------
Test system: A549 NSCLC
testMethodNotes: NCI tumour cell line growth inhibition, 48 h
As shown below, each of these compounds has a reported TGI value.

Below, each entry is followed by its recorded TGI result.
- CCCCOC(=O)C1OC(O[C@H]2CCC3(C)C(CCC4(C)C3CC=C3C5CC(C)(C)CCC5(C(=O)O)CC[C@]34C)C2(C)C)C(OC2OC(CO)C(O)C(O)C2O)C(OC2OC(CO)C(O)C(O)C2O)C1O (some centres undefined): > 100 µM
- CC1C=C(CCCCCCCCCCCC[C@@H](O)[C@@H]2CC[C@@H]([C@@H]3CC[C@@H](C(O)CCCCCCCCCCCCC4=C[C@H](C)OC4=O)O3)O2)C(=O)O1 (some centres undefined): > 100 µM
- CCCCC(=O)OCC(=O)[C@]1(O)Cc2c(O)c3c(c(O)c2[C@@H](OC2CC(NC(=O)C(F)(F)F)C(O)C(C)O2)C1)C(=O)c1c(OC)cccc1C3=O (some centres undefined): 3.83 µM
- O=c1[nH]cc(N=Cc2cc(Cl)cc(Cl)c2O)c(=O)[nH]1: > 100 µM
- Cn1cc(C2=C(c3cn(C)c4ncccc34)C(=O)NC2=O)c2ccccc21: > 25 µM

Exam item: Fill in: TGI of `Cc1cccc(/C=N/NC(=S)Nc2ccccc2)n1` is ___
Marked response: > 100 µM

Exam item: Fill in: TGI of CC1=C(C(=O)Nc2ccc(Cl)c(Cl)c2)C(c2cccc(Oc3ccccc3)c2)NC(=S)N1 (centres undefined) is ___
Marked response: 23.7 µM

Exam item: Fill in: TGI of `CC(=O)NNc1nc(C)c(C(=O)NNC(=O)C(=O)Nc2ccc(Cl)cc2)s1` is ___
Marked response: > 100 µM

Exam item: Fill in: TGI of `NNC(=O)Nc1cccnc1` is ___
Marked response: > 100 µM

----------
Tested on: KM12 colon
testMethodNotes: NCI tumour cell line growth inhibition, 48 h; in the data active means GI50 below about 0.43 µM; inactive means the rest
Select the matching outcome among true for active, false for inactive

Answered cases to consult:
• CCCNC1=C2CC(C)CC(OC)[C@@H](O)[C@H](C)/C=C(\C)C(OC(N)=O)C(OC)/C=C\C=C(/C)C(=O)NC(=CC1=O)C2=O (some centres undefined) = true
• O=S(=O)(NC1=NCCN1C(=S)SN1CCn2c1nsc2=S)c1ccc(OC(F)(F)F)cc1 = false
• CCCCOC(=O)C1OC(O[C@H]2CCC3(C)C(CCC4(C)C3CC=C3C5CC(C)(C)CCC5(C(=O)O)CC[C@]34C)C2(C)C)C(OC2OC(CO)C(O)C(O)C2O)C(OC2OC(CO)C(O)C(O)C2O)C1O (some centres undefined) = false

Exam item: How did this test come out for `CCCCCN(CCCCC)CCCNc1c2c(nc3ccc(Cl)cc13)CCCC2` ?
Marked response: false

----------
Tested on: SN12C renal
testMethodNotes: NCI tumour cell line growth inhibition, 48 h; in the data active = GI50 below about 0.43 µM; inactive = the rest
Select the matching outcome among active, inactive

Exam item: How did this test come out for NC(Cc1c[nH]c2c(O)cccc12)C(=O)O (configuration not stated) ?
Marked response: inactive

Exam item: How did this test come out for `Cc1ccc(C(=O)/C(=C/c2ccc([N+](=O)[O-])cc2)SCc2ccc(Cl)cc2)cc1` ?
Marked response: inactive

Exam item: How did this test come out for `O=C([O-])CC(=O)[O-].O=C([O-])CC(=O)[O-].[K+].[Pd+2]` ?
Marked response: inactive

Exam item: How did this test come out for CC1=C(C(=O)Nc2ccc(Cl)c(Cl)c2)C(c2cccc(Oc3ccccc3)c2)NC(=S)N1 (configuration not stated) ?
Marked response: inactive

Exam item: How did this test come out for `NC(=O)c1cccc2cn(-c3ccc([C@@H]4CCCNC4)cc3)nc12` ?
Marked response: inactive
